Protocol notes: Plasma pharmacokinetics of pamiparib, single dose and steady state, non-compartmental
Format: in vivo, human
Experimental conditions: human, plasma, oral, 20 mg, Single dose, 20 mg BID cohort, N 4; geometric mean (geometric CV%); read-out: AUC0-12
Test readout: AUC(0-t) (ng·h/mL)

>>> value_reported("C[C@]12CCCN1CC1=NNC(=O)c3cc(F)cc4[nH]c2c1c34")
5030

---

Protocol notes: Plasma pharmacokinetics of pamiparib, single dose and steady state, non-compartmental
Type: in vivo, human
Experimental conditions: human, plasma, oral, 60 mg, Steady state (Cycle 1 Day 10), 60 mg BID, N 5; geometric mean (geometric CV%); read-out: AUC0-9
Test readout: AUC(0-t) (ng·h/mL)

>>> value_reported("C[C@]12CCCN1CC1=NNC(=O)c3cc(F)cc4[nH]c2c1c34")
38100
